- Tested Target: T1, TIM3 protein (cat #CHI-MF-210T3-0050, Chimerigen)
- T1 construct: Bought recombinant protein used in SPR; also called TLM3 protein
- T1 sequence (Q8VIM0 20-193, change not shown): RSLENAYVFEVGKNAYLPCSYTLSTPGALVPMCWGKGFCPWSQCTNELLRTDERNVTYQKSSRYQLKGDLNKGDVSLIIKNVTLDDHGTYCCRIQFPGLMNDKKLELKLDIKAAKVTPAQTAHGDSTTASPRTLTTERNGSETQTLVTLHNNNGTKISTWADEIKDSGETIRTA
- Test Name: SPR (OpenSPR), TIM3 protein immobilised on chip, peptide in flow
No end group written: not given here.
Measurement Name: pKd
In plain terms, pKd is the concentration in mol/L turned into minus its base-10 logarithm.

LTPHKHHKHLHA (Synthetic 12-mer from phage display screening) [P20-12-peptide (targeting TIM3)] = 4.61

Item: SPFYYSGHQWVPHPRQAASY (Synthetic 20-mer from phage display screening) [K10-20-peptide (targeting TIM3)] | pKd: 4.58

pKd for SHDTRSPFTWGR (Synthetic 12-mer from phage display screening) [P1307-12-peptide (targeting TIM3)] is 3.93

Value of measured pKd for the entry ADFRVMADMSMY (Synthetic 12-mer from phage display screening) [P29-12-peptide (targeting TIM3)] : 3.70

Record ALWPSSSMSSTI (Synthetic 12-mer from phage display screening) [P1303-12-peptide (targeting TIM3)] . Reported pKd: 4.58

pKd reported for this binder HDAFPRPHLFRN (not fully specified) [P1301-12-peptide (targeting TIM3)] : 4.10

Noted for GSWNTFRAQPTI (Synthetic 12-mer from phage display screening) [P24-12-peptide (targeting TIM3)] : its pKd reads 7.02
